Attribution: the supplement of paper PMC10702517

Test: chemical recovery by SPE of plasma after PDMS sampling; higher = better extraction
Details: pooled human plasma; extraction method: HLB SPE of plasma after PES; equilibration time (d): 1
Param threshold (4%) applies to chemical recovery by SPE of plasma; output YES when value >= threshold, NO when value < threshold.

c1ccc2sc(NC3CCCCC3)nc2c1 = NO
CNC(=O)/C(=N/OC)c1ccccc1COc1cc(C)ccc1C = NO
COc1cc(NS(=O)(=O)c2ccc(N)cc2)nc(OC)n1 = YES

Moving on to another compound below.
Given the entry `CCCc1nc(C)c2c(=O)nc(-c3cc(S(=O)(=O)N4CCN(CC)CC4)ccc3OCC)[nH]n12` , answer whether its chemical recovery by SPE of plasma meets or surpasses 4%.
YES

----------
Assay: chemical recovery from spiked human plasma; higher = better extraction
Conditions: pooled human plasma; extraction method: SPE only (HLB 96-well)
Measured chemical recovery values are reported for all entries that follow.
All answers are understood in %, so give the number only.

O=C1NS(=O)(=O)c2ccccc21 = 38.6
Cn1cc(C(=O)Nc2ccccc2-c2cc(F)c(F)c(F)c2)c(C(F)F)n1 = 65
CC(C)(C)c1cc(Cn2c(=O)n(Cc3cc(C(C)(C)C)c(O)c(C(C)(C)C)c3)c(=O)n(Cc3cc(C(C)(C)C)c(O)c(C(C)(C)C)c3)c2=O)cc(C(C)(C)C)c1O [Antioxidant-3114] = 5.69
COc1cc(NS(=O)(=O)c2ccc(N)cc2)nc(OC)n1 = 30.1
Oc1ccc(C(c2ccccc2)(c2ccccc2)c2ccc(O)cc2)cc1 = 40.9
CC(C)(c1ccccc1)c1ccc(Nc2ccc(C(C)(C)c3ccccc3)cc2)cc1 = 2.12

So what's the measured chemical recovery for this one? CC12CC1(C)C(=O)N(c1cc(Cl)cc(Cl)c1)C2=O (stereo not drawn)
18.9

So what's the measured chemical recovery for this one? CC(C)CCCCCCOC(=O)c1ccccc1C(=O)OCCCCCCC(C)C [Diisononyl-phthalate]
23.4

So what's the measured chemical recovery for this one? CC(C)CC(C)Nc1ccc(Nc2ccccc2)cc1 (stereo not drawn)
1.42

So what's the measured chemical recovery for this one? NC(=O)/N=C1\SCCN1Cc1ccc(Cl)nc1 [Thiacloprid amide]
33.6

So what's the measured chemical recovery for this one? Cc1cccc(C)c1NC(=O)CS(=O)(=O)O [Dimethachlor CGA369-873]
40.3

So what's the measured chemical recovery for this one? COc1ccccc1OCC(O)COC(N)=O (stereo not drawn)
36.1

So what's the measured chemical recovery for this one? `Cc1nnc(-c2ccccc2)c(=O)n1N`
46.3

So what's the measured chemical recovery for this one? `N=C(N)NC(=O)Cc1c(Cl)cccc1Cl`
44

So what's the measured chemical recovery for this one? `CC(C)(C)CC(C)(C)c1ccc(O)cc1`
25.4

So what's the measured chemical recovery for this one? CCc1cc(Cc2cc(CC)cc(C(C)(C)C)c2O)c(O)c(C(C)(C)C)c1 [2,2'-Methylenebis(ethyl-6-tert-butylphenol)]
3.63

So what's the measured chemical recovery for this one? `Cc1c(N(C)C)c(=O)n(-c2ccccc2)n1C`
39.3

So what's the measured chemical recovery for this one? CCCCCCCCCCCCCC[N+](C)(C)[O-] [N,N-Dimethyltetradecylamine-N-oxide]
71.5

So what's the measured chemical recovery for this one? `C1=Cc2ccccc2Nc2ccccc21`
44.1

So what's the measured chemical recovery for this one? `CN1CCN(C2=Nc3cc(Cl)ccc3Nc3ccccc32)CC1`
39.1

So what's the measured chemical recovery for this one? `c1cc2c3c(cccc3c1)CC2`
9.53

So what's the measured chemical recovery for this one? C=CCOC(Cn1ccnc1)c1ccc(Cl)cc1Cl (stereo not drawn)
42.1

So what's the measured chemical recovery for this one? `CC(C)c1ccc(N)cc1`
15.1

So what's the measured chemical recovery for this one? N#Cc1nn(-c2c(Cl)cc(C(F)(F)F)cc2Cl)c(N)c1SC(F)(F)F [Fipronil sulfide]
30.6
